Recorded pIC50 for compounds tested on Acetyl-CoA carboxylase 1 (Homo sapiens), drawn from a number of studies.
pIC50: −log10 of the molar value.
Experimental readout: pIC50

Compound	Recorded value
COc1ccccc1C(Cn1c(=O)n(C(C)(C)C(=O)O)c(=O)c2c(C)c(-c3ncco3)sc21)OC1CC2COCC2C1 (stereo not drawn)	8.75
CC(C)n1ncc2c1C(=O)CC1(CCN(C(=O)c3ccc4[nH]nc(C#N)c4c3)CC1)C2	8.40
COc1ccccc1C(Cn1nc(CC(=O)O)c(=O)c2c(C)c(-c3ncco3)sc21)OC1CCOCC1 (stereo not drawn)	7.27

a: COc1ccccc1C(Cn1c(=O)n(C(C)(C)C(=O)O)c(=O)c2c(C)c(-c3ncco3)sc21)O[C@H]1C[C@H]2C[C@@H](O)C[C@H]2C1 (stereo partly drawn)
b: COc1cc(C(=O)N2CCC3(CC2)Cc2ccc(Nc4ccnn4C)cc2C(=O)O3)nc2c(OC)cccc12
Exercise: a or b : whose pIC50 is greater? Kindly state the label of the option you pick.
Solution: a

a: COc1ccccc1C(Cn1c(=O)n(-c2cccc(C(=O)O)c2F)c(=O)c2c(C)c(-c3ncco3)sc21)OC1CCOCC1 (stereo not drawn)
b: COc1ccccc1[C@H](Cn1nc(C(C)(C)C(=O)O)c(=O)c2c(C)c(-c3ncco3)sc21)OC1CCOCC1
Exercise: Endpoint returns whichever of a and b has the numerically higher pIC50. Answer by stating the label of the chosen item.
Solution: a
(a: 8.83, b: 7.85)
